protocol.description: Metabolic stability in human liver microsomes assessed as unbound intrinsic clearance
Type: ADME, Microsome
property.label: CL free (L/h/kg)
I only need the number, in L/h/kg, no unit after it.

Determine from records and report CL free for Cc1noc([C@H]2Cc3c([nH]c4ccccc34)[C@H](c3ccc(S(C)(=O)=O)cc3)N2C(=O)CCl)n1
1.9

Please report CL free for the following compound: CC(C)OC(=O)[C@H]1Cc2c([nH]c3ccccc23)[C@H](c2ccccc2)N1C(=O)CCl
30.3

Look up and state reported CL free for COC(=O)[C@H]1Cc2c([nH]c3ccccc23)[C@H](c2ccc(S(C)(=O)=O)cn2)N1C(=O)CCl
2.1

Recall and state the measured CL free for COC(=O)[C@H]1Cc2c([nH]c3ccccc23)[C@H](c2ccc(OC)cc2)N1C(=O)CCl .
22.5

----------
protocol.description: Metabolic stability in human liver microsomes assessed as unbound intrinsic clearance
Type: ADME, Microsome
# CL free >= 100 mL/min/kg gives true (1), anything below gives false (0)

Evaluate O=C([C@H]1Cc2c([nH]c3ccccc23)[C@H](c2ccccc2)N1C(=O)CCl)N1CCCC1 : CL free at minimum 100 mL/min/kg?
true (1)

Exam item: decide whether the reported CL free for COC(=O)[C@H]1Cc2c([nH]c3ccccc23)[C@H](c2ccc(S(C)(=O)=O)nc2)N1C(=O)CCl is at least 100 mL/min/kg.
false (0)

Would you say COC(=O)c1ccc([C@H]2c3[nH]c4ccccc4c3C[C@H](C(=O)OC)N2C(=O)CCl)cc1 shows CL free at minimum 100 mL/min/kg?
true (1)

Item C=CC(=O)N1[C@@H](c2ccccc2)c2[nH]c3ccccc3c2C[C@@H]1C(=O)OC with CL free of 100 mL/min/kg or above?
false (0)

In plain terms: is recorded CL free at least 100 mL/min/kg for Cc1noc([C@H]2Cc3c([nH]c4ccccc34)[C@H](c3ccccc3)N2C(=O)CCl)n1 ?
true (1)

// inclusive: CL free at least 100 mL/min/kg? input: COC(=O)[C@H]1Cc2c([nH]c3ccccc23)[C@H](c2ccc(C(F)(F)F)cc2)N1C(=O)CCl
true (1)

Is it the case that COC(=O)[C@H]1Cc2c([nH]c3ccccc23)[C@H](c2cccc(S(C)(=O)=O)c2)N1C(=O)CCl has CL free reaching or exceeding 100 mL/min/kg?
false (0)

Exam item: decide whether the reported CL free for COC(=O)[C@H]1Cc2c([nH]c3ccccc23)[C@H](c2ccc(C(F)(F)F)nc2)N1C(=O)CCl is at least 100 mL/min/kg.
true (1)

----------
Tested on: NCI-H1703
protocol.description: Induction of ferroptosis in human NCI-H1703 cells assessed as cell viability incubated for 72 hrs by CellTiter-Glo luminescent cell viability assay
Assay type: functional, cell-based
experimental.parameters: NCI-H1703, 72 h
Rule: EC50 below 100 nM gives Met. Equal to or above 100 nM gives Not met.

EC50 strictly < 100 nM for this molecule? COC(=O)[C@H]1Cc2c([nH]c3ccccc23)[C@H](c2ccc(S(C)(=O)=O)cc2)N1C(=O)CCl
Not met

Is the reported EC50 for COC(=O)[C@H]1Cc2c([nH]c3ccccc23)[C@H](c2ccc(OC)cc2)N1C(=O)CCl strictly below 100 nM?
Not met

EC50 strictly < 100 nM for this molecule? COC(=O)[C@H]1Cc2c([nH]c3ccccc23)[C@H](c2ccc(F)cc2F)N1C(=O)CCl
Not met

EC50 strictly < 100 nM for this molecule? Cc1noc([C@H]2Cc3c([nH]c4ccccc34)[C@H](c3ccc(S(C)(=O)=O)cc3)N2C(=O)CCl)n1
Met

Input O=C([C@H]1Cc2c([nH]c3ccccc23)[C@H](c2ccccc2)N1C(=O)CCl)N1CCCC1 ; condition: EC50 strictly below 100 nM. Does it hold?
Not met

State whether 100 nM exceeds EC50 recorded for COC(=O)[C@H]1Cc2c([nH]c3ccccc23)[C@H](c2ccccc2)N1C(=O)CCl .
Not met

Would you kindly verify if EC50 of COC(=O)[C@H]1Cc2c([nH]c3ccccc23)[C@H](c2ccc(C(F)(F)F)cc2)N1C(=O)CCl is strictly less than 100 nM?
Met

Below 100 nM on EC50? Entry COC(=O)[C@H]1Cc2c([nH]c3ccccc23)C(c2ccc(F)cc2C(F)(F)F)N1C(=O)CCl (single isomer, unassigned)
Met

----------
protocol.description: Stability in mouse plasma assessed as half life
Type: ADME, cell-free
property.label: half-life (h)
Form entry: value (h) — number only.

Look up half-life of C=CC(=O)N1[C@@H](c2ccccc2)c2[nH]c3ccccc3c2C[C@@H]1C(=O)OC and report it.
1.05

Find the measured half-life of COC(=O)[C@H]1Cc2c([nH]c3ccccc23)[C@H](c2cccc(S(C)(=O)=O)c2)N1C(=O)CCl and report it.
0.167

Return reported half-life. Input compound: COC(=O)[C@H]1Cc2c([nH]c3ccccc23)[C@H](Cc2ccccc2)N1C(=O)CCl
2.7

Item Cc1noc([C@H]2Cc3c([nH]c4ccccc34)[C@H](c3ccc(S(C)(=O)=O)cc3)N2C(=O)CCl)n1 : provide half-life
1.85

For the compound C#CC(=O)N1[C@@H](c2ccccc2)c2[nH]c3ccccc3c2C[C@@H]1C(=O)OC , give its measured half-life value.
0.317

Quickly give me recorded half-life for COC(=O)c1ccc([C@H]2c3[nH]c4ccccc4c3CCN2C(=O)CCl)cc1
0.2

Return the recorded half-life value; entry: CC(C)OC(=O)[C@H]1Cc2c([nH]c3ccccc23)[C@H](c2ccccc2)N1C(=O)CCl
2.77

Read the entry COC(=O)[C@H]1Cc2c([nH]c3ccccc23)[C@H](c2ccc(C(F)(F)F)nc2)N1C(=O)CCl and write its reported half-life.
2.12

Return the recorded half-life value; entry: COC(=O)[C@H]1Cc2c([nH]c3ccccc23)[C@H](c2ccc(OC)cc2)N1C(=O)CCl
4.02

Return value of half-life for input Cc1noc([C@H]2Cc3c([nH]c4ccccc34)[C@H](c3ccccc3)N2C(=O)CCl)n1 , no commentary.
2.68

Give half-life for COC(=O)c1ccc([C@H]2c3[nH]c4ccccc4c3C[C@H](C(=O)OC)N2C(=O)CCl)cc1
0.167

Specify half-life for O=C([C@H]1Cc2c([nH]c3ccccc23)[C@H](c2ccccc2)N1C(=O)CCl)N1CCCC1 and stop.
3.6

Consider the compound COC(=O)[C@H]1Cc2c([nH]c3ccccc23)[C@H](c2ccc(S(C)(=O)=O)nc2)N1C(=O)CCl and give its recorded half-life.
2.77

Please give measured half-life of the following entry: COC(=O)[C@H]1Cc2c([nH]c3ccccc23)[C@H](c2ccc(S(C)(=O)=O)cn2)N1C(=O)CCl
1.33

Answer with reported half-life of COC(=O)[C@H]1Cc2c([nH]c3ccccc23)[C@H](c2ccccc2)N1C(C)=O
13.7

Read off the recorded half-life for COC(=O)[C@H]1Cc2c([nH]c3ccccc23)[C@H](c2ccc(C(F)(F)F)cc2)N1C(=O)CCl
4.38

----------
Tested on: NCI-H1703
protocol.description: Induction of ferroptosis in human NCI-H1703 cells assessed as cell viability incubated for 72 hrs by CellTiter-Glo luminescent cell viability assay
Type: functional, cell-based
experimental.parameters: NCI-H1703, 72 h
Response field class: enum, chosen by comparing EC50 against low bracket (below 200 nM), middle bracket (200 nM to below 1000 nM), high bracket (1000 nM or more)

Which of the defined bands does the recorded EC50 of COC(=O)[C@H]1Cc2c([nH]c3ccccc23)[C@H](c2ccc(OC(F)(F)F)cc2)N1C(=O)CCl sit within?
low bracket

Hi, small favor: classify COC(=O)[C@H]1Cc2c([nH]c3ccccc23)[C@H](c2ccc(C(F)(F)F)nc2)N1C(=O)CCl by its EC50 when you get a moment.
low bracket

Would you mind sorting COC(=O)c1ccc([C@H]2c3[nH]c4ccccc4c3C[C@H](C(=O)OC)N2C(=O)CCl)cc1 into the appropriate category?
low bracket

# bin label for C#CC(=O)N1[C@@H](c2ccccc2)c2[nH]c3ccccc3c2C[C@@H]1C(=O)OC
low bracket

// bin(item) where item = CN(C)C(=O)[C@H]1Cc2c([nH]c3ccccc23)[C@H](c2ccccc2)N1C(=O)CCl
middle bracket

Tag the class for CC(C)OC(=O)[C@H]1Cc2c([nH]c3ccccc23)[C@H](c2ccccc2)N1C(=O)CCl
middle bracket

# classify by EC50 band: COC(=O)[C@H]1Cc2c([nH]c3ccccc23)[C@H](C2CCOCC2)N1C(=O)CCl
high bracket

Into which bin does this molecule go? COC(=O)c1ccc([C@H]2c3[nH]c4ccccc4c3CCN2C(=O)CCl)cc1
high bracket

Class for C=CC(=O)N1[C@@H](c2ccccc2)c2[nH]c3ccccc3c2C[C@@H]1C(=O)OC ?
high bracket

Ref: ChEMBL document CHEMBL5375942
